List of normalised response values.
System: BT-474
Experiment: normalised response (% of control), CellTiter-Glo; higher = more viable cells (100 = DMSO, 0 = benzethonium chloride kill control)
Conditions: incubation time: 72 h
Entry rule: numbers only, all in %.

Worked set:
c1cc(CN2CCCNCCNCCCNCC2)ccc1CN1CCCNCCNCCCNCC1 [Plerixafor] (10000 nM): 90.9
CO[C@@H](C(=O)N1Cc2[nH]nc(NC(=O)c3ccc(N4CCN(C)CC4)cc3)c2C1)c1ccccc1 [Danusertib] (10000 nM): 55.5
CC/C(=C(\c1ccc(O)cc1)c1ccc(OCCN(C)C)cc1)c1ccccc1 [4-hydroxytamoxifen] (10000 nM): 63
O=C1c2c(O)ccc(O)c2C(=O)c2c(NCCNCCO)ccc(NCCNCCO)c21 [Mitoxantrone] (1000 nM): 79.3

Measured normalised response of Cc1nc(Nc2ncc(C(=O)Nc3c(C)cccc3Cl)s2)cc(N2CCN(CCO)CC2)n1 [Dasatinib] (1000 nM) : 45.7

Measured normalised response of CC(C)N(CCCNC(=O)Nc1ccc(C(C)(C)C)cc1)C[C@H]1O[C@@H](n2cc(Br)c3c(N)ncnc32)[C@H](O)[C@@H]1O [SGC0946] (10000 nM) : 88.1

###

System: MDA-MB-453
Experiment: normalised viability (% of control), CellTiter-Blue; higher = more viable cells (about 100 = DMSO control)
Conditions: 100 nM; incubation time: 72 h
quantity measured: normalised viability (%)
Entry rule: numbers only, all in %.

Worked set:
C[C@]12C=CC(=O)C=C1CC[C@@H]1[C@@H]2[C@@H](O)C[C@@]2(C)[C@H]1CC[C@]2(O)C(=O)CO: 95.5
Cc1c(CN2CCN(C(=O)[C@H](C)O)CC2)sc2c(N3CCOCC3)nc(-c3cnc(N)nc3)nc12: 56.1
COc1ccc(-c2cc3c(C)nc(N)nc3n([C@H]3CC[C@H](OCCO)CC3)c2=O)cn1: 48.5

Query compound follows.
Measured normalised viability of "Nc1ccccc1NC(=O)c1ccc(CNc2nccc(-c3cccnc3)n2)cc1" : 87.5

###

Tested on: BT-549
Assay: normalised response (% of control), CellTiter-Glo; higher = more viable cells (100 = DMSO, 0 = benzethonium chloride kill control)
Conditions: incubation time: 72 h
quantity measured: normalised response (%)
Entry rule: numbers only, all in %.

Worked set:
Cc1cccc(-c2nn3c(c2-c2ccnc4ccc(C(N)=O)cc24)CCC3)n1 [Galunisertib] (0.1 nM): 95.7
CC(=O)OC[C@H]1O[C@@H]([S-])[C@H](OC(C)=O)[C@@H](OC(C)=O)[C@@H]1OC(C)=O.CCP(CC)CC.[Au+] [Auranofin] (0.25 nM): 97.4

Field normalised response (BT-549), entry CNC(=O)c1cc(Oc2ccc(NC(=O)Nc3ccc(Cl)c(C(F)(F)F)c3)cc2)ccn1 [Sorafenib] (0.1 nM) : 104

Field normalised response (BT-549), entry Cc1ccc(Nc2nccc(N(C)c3ccc4c(C)n(C)nc4c3)n2)cc1S(N)(=O)=O [Pazopanib] (10 nM) : 93.9

Field normalised response (BT-549), entry CC(C)N(CCCNC(=O)Nc1ccc(C(C)(C)C)cc1)C[C@H]1O[C@@H](n2cc(Br)c3c(N)ncnc32)[C@H](O)[C@@H]1O [SGC0946] (1 nM) : 99.2

Field normalised response (BT-549), entry CCCCC/C=C/C=C1/C(=O)C=C[C@@H]1C/C=C\CCCC(=O)O [15D-PGJ2] (0.08 nM) : 98.4

Field normalised response (BT-549), entry Cc1ccc(Nc2nccc(N(C)c3ccc4c(C)n(C)nc4c3)n2)cc1S(N)(=O)=O [Pazopanib] (1 nM) : 104

###

System: MCF-10A
Settings: 72 h
List of EC50, CellTiter-Glo values.

Worked set:
Cn1cc(CNCC2CCN(c3ncc(C(=O)NO)cn3)CC2)c2ccccc21 [Quisinostat]: 92.8 nM
C[C@]12O[C@H](C[C@]1(O)CO)n1c3ccccc3c3c4c(c5c6ccccc6n2c5c31)CNC4=O [Lestaurtinib]: 215 nM
CC(=O)OC[C@H]1O[C@@H]([S-])[C@H](OC(C)=O)[C@@H](OC(C)=O)[C@@H]1OC(C)=O.CCP(CC)CC.[Au+] [Auranofin]: 1630 nM

Query compound follows.
Measured EC50, CellTiter-Glo of O=C(NC[C@H](O)CO)c1ccncc1Nc1ccc(I)cc1F [Pimasertib] : 12.9 nM

###

Test system: BT-549
Experiment: normalised response (% of control), CellTiter-Glo; higher = more viable cells (100 = DMSO, 0 = benzethonium chloride kill control)
Settings: incubation time: 72 h
List of normalised response values.
Entry rule: numbers only, all in %.

Worked set:
CS(=O)(=O)N1CCN(Cc2cc3nc(-c4cccc5[nH]ncc45)nc(N4CCOCC4)c3s2)CC1 [Pictilisib] (1 nM): 104
C[C@]12C=CC(=O)C=C1CC[C@@H]1[C@@H]2[C@@H](O)C[C@@]2(C)[C@H]1CC[C@]2(O)C(=O)CO [Prednisolone] (1 nM): 112
Cc1cccc(-c2nn3c(c2-c2ccnc4ccc(C(N)=O)cc24)CCC3)n1 [Galunisertib] (1 nM): 102
CO[C@@H](C(=O)N1Cc2[nH]nc(NC(=O)c3ccc(N4CCN(C)CC4)cc3)c2C1)c1ccccc1 [Danusertib] (10 nM): 99.7
COc1cc(CCc2cc(NC(=O)c3ccc(N4CC(C)NC(C)C4)cc3)n[nH]2)cc(OC)c1 (stereo not drawn) [AZD4547] (100 nM): 88.4

Field normalised response (BT-549), entry Cc1c(CN2CCN(C(=O)[C@H](C)O)CC2)sc2c(N3CCOCC3)nc(-c3cnc(N)nc3)nc12 [GDC-0980] (10 nM) : 101

###

Tested on: MDA-MB-436
Assay: normalised viability (% of control), CellTiter-Blue; higher = more viable cells (about 100 = DMSO control)
Details: 100 nM; incubation time: 72 h
quantity measured: normalised viability (%)
Entry rule: numbers only, all in %.

COc1ccc(-c2cc3c(C)nc(N)nc3n([C@H]3CC[C@H](OCCO)CC3)c2=O)cn1: 80.6
O=S(=O)(c1cccc2cnccc12)N1CCCNCC1: 100
Cc1c(CN2CCN(C(=O)[C@H](C)O)CC2)sc2c(N3CCOCC3)nc(-c3cnc(N)nc3)nc12: 85.6

Query molecule follows.
Measured normalised viability of "C[C@]12C=CC(=O)C=C1CC[C@@H]1[C@@H]2[C@@H](O)C[C@@]2(C)[C@H]1CC[C@]2(O)C(=O)CO" : 96.6

###

List of normalised response values.
System: Hs578T
Experiment: normalised response (% of control), CellTiter-Glo; higher = more viable cells (100 = DMSO, 0 = benzethonium chloride kill control)
Conditions: incubation time: 72 h
# output: number + unit

c1cc(CN2CCCNCCNCCCNCC2)ccc1CN1CCCNCCNCCCNCC1 [Plerixafor] (100 nM): 94.8%
O=C(Nc1c[nH]nc1-c1nc2ccc(CN3CCOCC3)cc2[nH]1)NC1CC1 [AT9283] (10 nM): 101%
Cc1ccc(Nc2nccc(N(C)c3ccc4c(C)n(C)nc4c3)n2)cc1S(N)(=O)=O [Pazopanib] (100 nM): 103%
CO[C@@H](C(=O)N1Cc2[nH]nc(NC(=O)c3ccc(N4CCN(C)CC4)cc3)c2C1)c1ccccc1 [Danusertib] (100 nM): 97%

Measured normalised response of CC(C)N(CCCNC(=O)Nc1ccc(C(C)(C)C)cc1)C[C@H]1O[C@@H](n2cc(Br)c3c(N)ncnc32)[C@H](O)[C@@H]1O [SGC0946] (100 nM) : 88.5%

###

Test system: Hs578T
Test: drug sensitivity score (DSS), CellTiter-Glo (DSS (AUC-based score)); higher = stronger drug effect (viability inhibition or cytotoxicity); extreme values may be limits of the assay
Conditions: incubation time: 72 h
So basically, the class depends on measured drug sensitivity score, and the ranges are lower range (below 1), middle range (1 to below 4), upper range (4 or more)

Recorded results for 10 compounds are shown here.
c1cc(CN2CCCNCCNCCCNCC2)ccc1CN1CCCNCCNCCCNCC1 [Plerixafor]: lower range
O=C(CCBr)N1CCN(C(=O)CCBr)CC1 [Pipobroman]: lower range
C[C@]12O[C@H](C[C@]1(O)CO)n1c3ccccc3c3c4c(c5c6ccccc6n2c5c31)CNC4=O [Lestaurtinib]: middle range
Cn1cc(CNCC2CCN(c3ncc(C(=O)NO)cn3)CC2)c2ccccc21 [Quisinostat]: upper range
COc1cc(CCc2cc(NC(=O)c3ccc(N4CC(C)NC(C)C4)cc3)n[nH]2)cc(OC)c1 (stereo not drawn) [AZD4547]: lower range
CS(=O)(=O)N1CCN(Cc2cc3nc(-c4cccc5[nH]ncc45)nc(N4CCOCC4)c3s2)CC1 [Pictilisib]: upper range
Nc1cccc2c1CN(C1CCC(=O)NC1=O)C2=O (stereo not drawn) [Lenalidomide]: lower range
Cc1c(CN2CCN(C(=O)[C@H](C)O)CC2)sc2c(N3CCOCC3)nc(-c3cnc(N)nc3)nc12 [GDC-0980]: upper range
CNC(=O)c1cc(Oc2ccc(NC(=O)Nc3ccc(Cl)c(C(F)(F)F)c3)cc2)ccn1 [Sorafenib]: lower range
O=C(NC[C@H](O)CO)c1ccncc1Nc1ccc(I)cc1F [Pimasertib]: middle range

Which category does the recorded drug sensitivity score put CC(=O)OC[C@H]1O[C@@H]([S-])[C@H](OC(C)=O)[C@@H](OC(C)=O)[C@@H]1OC(C)=O.CCP(CC)CC.[Au+] [Auranofin] in?
middle range

Which category does the recorded drug sensitivity score put "COc1ccc(-c2cc3c(C)nc(N)nc3n([C@H]3CC[C@H](OCCO)CC3)c2=O)cn1" in?
upper range
